B1: Autophagy-related protein (Plasmodium falciparum (isolate 3D7)), Q8IJK2 (parent)
chain: MPSLKDEVSFENRVAETHKIRSKYPNRIPVVCERANRSNLPIIEKKKFLVPMNMLVGEFKFILHQHINQSAYGSNMKLFRERTIYLFVNNIVPKTGLLMQDLYEMYKDEDGYLYMEYSCESCLG

Variants of: B1
protocolConditions: with c0h519, C0H519
endpointName: effect of a mutation on the interaction

Below, 4 variants whose answers are already recorded.
{"columns": ["macromoleculeSequence", "endpointName", "result"],
 "data": [
  ["MPSLKDEVSFENRVAETHKIRSKYPNEIPVVCERANRSNLPIIEKKKFLVPMNMLVGEFKFILHQHINQSAYGSNMKLFRERTIYLFVNNIVPKTGLLMQDLYEMYKDEDGYLYMEYSCESCLG [R27E]", "effect of a mutation on the interaction", "disrupting interaction"],
  ["MPSLKDEVSFENRVAETHKIRSKYPNRIPVVCERANRSNLPIIEKKEFLVPMNMLVGEFKFILHQHINQSAYGSNMKLFRERTIYLFVNNIVPKTGLLMQDLYEMYKDEDGYLYMEYSCESCLG [K47E]", "effect of a mutation on the interaction", "disrupting interaction"],
  ["MPSLKDEVSFENRVAETHKIRSKYPNRIPVVCERANRSNLPIIEKKKFAVPMNMLVGEFKFILHQHINQSAYGSNMKLFRERTIYLFVNNIVPKTGLLMQDLYEMYKDEDGYLYMEYSCESCLG [L49A]", "effect of a mutation on the interaction", "decreasing interaction"],
  ["MPSLKDEVSFENRVAETHEIRSKYPNRIPVVCERANRSNLPIIEKKEFLVPMNMLVGEFKFILHQHINQSAYGSNMKLFRERTIYLFVNNIVPKTGLLMQDLYEMYKDEDGYLYMEYSCESCLG [K19E;K47E]", "effect of a mutation on the interaction", "disrupting interaction"]
]}

Attention now shifts to the item below.
-- ask Name the recorded effect of a mutation on the interaction for MPSLKDEVSFENRVAETHKIRSKYPNRIPVVCERANRSNLPIIASAKFLVPMNMLVGEFKFILHQHINQSAYGSNMKLFRERTIYLFVNNIVPKTGLLMQDLYEMYKDEDGYLYMEYSCESCLG [E44A;K45S;K46A] .
-- reply decreasing interaction
